Reference source: patent US7754689B2

Target: T1, BMP-12 (UniProt Q7Z4P5 322-450, limits assumed)
T1 construct: also called BMP12/GDF7
T1 sequence (looked up): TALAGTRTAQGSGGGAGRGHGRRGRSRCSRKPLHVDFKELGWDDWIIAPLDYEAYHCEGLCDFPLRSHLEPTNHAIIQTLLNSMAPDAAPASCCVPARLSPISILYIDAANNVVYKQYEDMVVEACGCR
Assay: peptide resin, filter plate; load 1: 50 mM Acetic Acid, 0.1 M NaCl, pH 2.9
No end group written: not given here.
observation_type: 4M Gnd, 50 mM NaAc pH 4 Strip Conc (mg/ml)

INSERT INTO results (binder, observation_type, obs_value) VALUES
  ('Ac-LYVDFSDVGWNDWIVAPPGYHAFYSHGEK [BMP2 Full peptide 747]', '4M Gnd, 50 mM NaAc pH 4 Strip Conc', 0.15),
  ('Ac-ELGWDDWIIAPLDYEAYHSEGLK [BMP12 N-trun_1S peptide 749]', '4M Gnd, 50 mM NaAc pH 4 Strip Conc', 0.141),
  ('Ac-SDVGWNDWIVAPPGYHAFYCHGEK [BMP2 N-trun peptide 750]', '4M Gnd, 50 mM NaAc pH 4 Strip Conc', 0.044),
  ('Ac-LYVSDVGWNDWIVK (not fully specified (residue 3); printed as Ac-LYV**SDVGWNDWIVK; also: ** after V3 not explained) [BMP2 C-trunc_2 peptide 746]', '4M Gnd, 50 mM NaAc pH 4 Strip Conc', 0.135);

(a) Ac-RDLGWQDWIIAPEGYAAFYSDGEK [BMP5 peptide 748]
(b) Ac-SDVGWNDWIVAPPGYHAFYSHGEK [BMP2 N-trun 1S peptide 751]
(c) Ac-VAPPGYHAFYSHGEK [BMP2 N-trunc_2 peptide 745]
hey, can you rank those binders up there by 4M Gnd, 50 mM NaAc pH 4 Strip Conc? biggest number first please Answer format: list of labels, ordered as asked.
a, b, c
